system: human Factor 7 mRNA; test: Inhibition of human Factor 7 mRNA by 2-10-2 MOE shortmers in HepB3 cells, electroporation, 1,000 nM; assay type: cell-based; conditions: electroporation, 1,000 nM oligonucleotide, approximately 24 hours, relative to untreated control cells
In the oligonucleotide strings, read from the 5' end, every base follows the letter of its sugar. An asterisk marks phosphorothioate; unmarked linkages are phosphodiester. Other units and linkages are bracketed, terminal groups are in braces. A string of capitals states the bases alone. e = 2'-O-(2-methoxyethyl) (MOE); [5mC] = 5-methylcytosine; d = 2'-deoxy (DNA)
READOUT_TYPE: % inhibition of human Factor 7 mRNA (%)
Express it in %; write the number only.

Example substances with recorded % inhibition of human Factor 7 mRNA:
SUBSTANCE	RECORDED_RESULT
435736 (antisense eA*eT*dG*d[5mC]*dA*dT*dG*dG*dT*dG*dA*dT*eG*e[5mC]) [compound 435736]	50
435819 (antisense eT*eT*dT*dG*dT*d[5mC]*d[5mC]*dA*dG*dT*dA*dA*eG*eA) [compound 435819]	1
435480 (antisense eG*eG*dT*d[5mC]*dA*dT*d[5mC]*dA*dG*d[5mC]*d[5mC]*dG*eG*eG) [compound 435480]	53

Which % inhibition of human Factor 7 mRNA reading was recorded for the substance 435503 (antisense eT*eG*dT*dA*d[5mC]*dT*dG*dG*dG*dA*dG*dA*e[5mC]*e[5mC]) [compound 435503] ?
17

Name the recorded % inhibition of human Factor 7 mRNA for 435834 (antisense eT*eG*dA*d[5mC]*dA*dG*d[5mC]*dA*d[5mC]*dG*dA*dA*eG*e[5mC]) [compound 435834] .
20

# lookup: % inhibition of human Factor 7 mRNA of 435832 (antisense eT*eG*d[5mC]*dT*d[5mC]*dA*dG*dA*d[5mC]*d[5mC]*dT*dG*eG*e[5mC]) [compound 435832]
70

Need % inhibition of human Factor 7 mRNA of 435798 (antisense eA*eG*d[5mC]*d[5mC]*dA*dG*dA*d[5mC]*dT*dT*dT*d[5mC]*e[5mC]*eT) [compound 435798] , thanks.
54
